# Lookup of reported IC50, inhibition of IFN-γ release, KG-1 cells, Hu IL-18 (1 nM) keyed by entry
# target_entity: T1, Recombinant human IL-18 (human, UniProt Q14116 37-193)
# T1 sequence: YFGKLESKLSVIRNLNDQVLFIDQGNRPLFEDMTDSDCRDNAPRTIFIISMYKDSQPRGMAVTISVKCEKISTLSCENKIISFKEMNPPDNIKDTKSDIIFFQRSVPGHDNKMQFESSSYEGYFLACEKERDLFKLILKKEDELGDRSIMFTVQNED
# assay_summary: cell-based or functional assay
Number in pM, nothing else.

Worked examples, 4 binders total:
binder: MOR9464_N30L (antibody, human IgG1, lambda, L234A L235A, V domains shown) VH: EVQLVQSGAEVKKPGSSVKVSCKASGGTFLSYAISWVRQAPGQGLEWMGNIIPMTGQTYYAQKFQGRVTITADESTSTAYMELSSLRSEDTAVYYCARAAYHPLVFDNWGQGTLVTVSS VL: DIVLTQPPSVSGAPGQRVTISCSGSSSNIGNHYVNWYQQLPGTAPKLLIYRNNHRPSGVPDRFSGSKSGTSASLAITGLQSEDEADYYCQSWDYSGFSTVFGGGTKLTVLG
unit_symbol: pM
numeric_readout: 230

binder: MOR10222_E1Q_N30S_M54I (antibody, human IgG1, lambda, L234A L235A, V domains shown) VH: QVQLVQSGAEVKKPGSSVKVSCKASGGTFSSYAISWVRQAPGQGLEWMGNIIPITGQTYYAQKFQGRVTITADESTSTAYMELSSLRSEDTAVYYCARAAYHPLVFDNWGQGTLVTVSS VL: QSVLTQPPSASGTPGQRVTISCSGSSSNIGNHYVNWYQQLPGTAPKLLIYRNNHRPSGVPDRFSGSKSGTSASLAISGLQSEDEADYYCQSWDYSGFSTVFGGGTKLTVLG
unit_symbol: pM
numeric_readout: 4200

binder: MOR9464_N30Y (antibody, human IgG1, lambda, L234A L235A, V domains shown) VH: EVQLVQSGAEVKKPGSSVKVSCKASGGTFYSYAISWVRQAPGQGLEWMGNIIPMTGQTYYAQKFQGRVTITADESTSTAYMELSSLRSEDTAVYYCARAAYHPLVFDNWGQGTLVTVSS VL: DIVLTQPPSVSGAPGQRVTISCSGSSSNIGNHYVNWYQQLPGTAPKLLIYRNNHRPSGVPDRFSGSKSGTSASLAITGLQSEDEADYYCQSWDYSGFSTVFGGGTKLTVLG
unit_symbol: pM
numeric_readout: 230

binder: MOR9464_N30K (antibody, human IgG1, lambda, L234A L235A, V domains shown, also called MOR09464_N30K) VH: EVQLVQSGAEVKKPGSSVKVSCKASGGTFKSYAISWVRQAPGQGLEWMGNIIPMTGQTYYAQKFQGRVTITADESTSTAYMELSSLRSEDTAVYYCARAAYHPLVFDNWGQGTLVTVSS VL: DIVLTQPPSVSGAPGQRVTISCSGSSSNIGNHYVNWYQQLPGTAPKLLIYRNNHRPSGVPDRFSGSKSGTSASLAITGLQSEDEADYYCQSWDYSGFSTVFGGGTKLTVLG
unit_symbol: pM
numeric_readout: 360

# ---- query binder ----
q: Fill in IC50, inhibition of IFN-γ release, KG-1 cells, Hu IL-18 (1 nM) for record MOR10222_E1Q_N30S (antibody, human IgG1, lambda, L234A L235A, V domains shown) VH: QVQLVQSGAEVKKPGSSVKVSCKASGGTFSSYAISWVRQAPGQGLEWMGNIIPMTGQTYYAQKFQGRVTITADESTSTAYMELSSLRSEDTAVYYCARAAYHPLVFDNWGQGTLVTVSS VL: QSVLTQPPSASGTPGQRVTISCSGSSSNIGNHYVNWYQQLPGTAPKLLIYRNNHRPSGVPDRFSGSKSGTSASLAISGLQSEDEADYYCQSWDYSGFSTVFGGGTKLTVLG
a: 3300

Ref: patent US20140112915A1
